Would you mind telling me the reported IC50 of each entry?
# SYSTEM_TESTED: mTOR (Homo sapiens, UniProt P42345)
# EXPERIMENT_NOTES: Lanthascreen kinase binding assay, assay G
# CONDITION_SUMMARY: read-out: Assay G mTOR IC50

These solved cases illustrate the format of a correct answer.
Cc1ccc(S(=O)(=O)NC[C@H]2C[C@@H](O)C2)cc1-c1cnc(N)c(-n2cncn2)n1    > 9.1 µM
Cc1cc(-c2nc(-c3cc(S(=O)(=O)NC[C@H]4CCC[C@@H](CN)C4)ccc3C)cnc2N)ccn1    > 9.1 µM
Cc1ccc(S(=O)(=O)NCC2CCN(C)C2)cc1-c1cnc(N)c(-n2cncn2)n1 (centres unmarked)    > 10 µM
Cc1cc(-c2nc(-c3cc(S(=O)(=O)NCCC(C)(C)O)ccc3C)cnc2N)n(C)n1    > 9.1 µM

Answer for every listed entry: what is its IC50? The entries follow.
1. Cc1cc(-c2nc(-c3cc(S(=O)(=O)N[C@H]4CC[C@H](N)CC4)ccc3C)cnc2N)ccn1
2. CNCCNS(=O)(=O)c1ccc(C)c(-c2cnc(N)c(-c3ccnc(C)c3)n2)c1
3. Cc1noc(-c2nc(-c3cc(S(=O)(=O)NC[C@H]4C[C@@H](O)C4)ccc3C)cnc2N)n1
4. Cc1ccc(S(=O)(=O)NCC2(O)CC2)cc1-c1cnc(N)c(-n2cncn2)n1

Output:
> 9.1 µM
> 9.1 µM
8.8 µM
> 9.1 µM

###

Please provide measured IC50 for the entries that follow.
# SYSTEM_TESTED: PI 3-kinase beta (Homo sapiens)
# Sequence (P42338 whole entry): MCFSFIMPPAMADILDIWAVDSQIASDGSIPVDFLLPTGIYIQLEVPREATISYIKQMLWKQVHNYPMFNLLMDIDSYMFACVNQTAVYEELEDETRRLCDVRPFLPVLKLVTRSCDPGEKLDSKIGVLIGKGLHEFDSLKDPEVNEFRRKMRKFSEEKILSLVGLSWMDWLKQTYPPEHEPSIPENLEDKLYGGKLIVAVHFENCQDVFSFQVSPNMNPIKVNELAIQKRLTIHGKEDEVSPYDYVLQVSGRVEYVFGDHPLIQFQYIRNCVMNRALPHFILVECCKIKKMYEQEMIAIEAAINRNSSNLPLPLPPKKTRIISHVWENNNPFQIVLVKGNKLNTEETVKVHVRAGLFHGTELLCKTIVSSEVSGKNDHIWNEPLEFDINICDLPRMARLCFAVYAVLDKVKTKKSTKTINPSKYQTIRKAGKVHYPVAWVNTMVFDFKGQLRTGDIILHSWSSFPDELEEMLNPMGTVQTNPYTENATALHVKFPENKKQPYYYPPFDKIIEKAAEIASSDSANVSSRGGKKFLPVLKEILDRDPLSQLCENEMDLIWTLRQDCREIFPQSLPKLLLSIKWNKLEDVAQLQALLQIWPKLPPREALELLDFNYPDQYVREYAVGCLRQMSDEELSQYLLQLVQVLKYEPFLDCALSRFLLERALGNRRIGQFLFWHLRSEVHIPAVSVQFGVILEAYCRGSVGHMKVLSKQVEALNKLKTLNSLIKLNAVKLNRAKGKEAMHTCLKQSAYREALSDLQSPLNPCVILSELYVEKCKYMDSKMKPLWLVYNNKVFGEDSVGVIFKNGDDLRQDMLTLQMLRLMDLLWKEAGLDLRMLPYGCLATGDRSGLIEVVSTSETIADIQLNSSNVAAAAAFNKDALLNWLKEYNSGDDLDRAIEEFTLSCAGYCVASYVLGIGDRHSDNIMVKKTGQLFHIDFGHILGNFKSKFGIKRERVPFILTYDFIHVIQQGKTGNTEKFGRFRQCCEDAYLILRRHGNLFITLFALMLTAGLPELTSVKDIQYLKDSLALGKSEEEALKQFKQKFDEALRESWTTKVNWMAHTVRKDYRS
# Sequence (Q63787 whole entry partner): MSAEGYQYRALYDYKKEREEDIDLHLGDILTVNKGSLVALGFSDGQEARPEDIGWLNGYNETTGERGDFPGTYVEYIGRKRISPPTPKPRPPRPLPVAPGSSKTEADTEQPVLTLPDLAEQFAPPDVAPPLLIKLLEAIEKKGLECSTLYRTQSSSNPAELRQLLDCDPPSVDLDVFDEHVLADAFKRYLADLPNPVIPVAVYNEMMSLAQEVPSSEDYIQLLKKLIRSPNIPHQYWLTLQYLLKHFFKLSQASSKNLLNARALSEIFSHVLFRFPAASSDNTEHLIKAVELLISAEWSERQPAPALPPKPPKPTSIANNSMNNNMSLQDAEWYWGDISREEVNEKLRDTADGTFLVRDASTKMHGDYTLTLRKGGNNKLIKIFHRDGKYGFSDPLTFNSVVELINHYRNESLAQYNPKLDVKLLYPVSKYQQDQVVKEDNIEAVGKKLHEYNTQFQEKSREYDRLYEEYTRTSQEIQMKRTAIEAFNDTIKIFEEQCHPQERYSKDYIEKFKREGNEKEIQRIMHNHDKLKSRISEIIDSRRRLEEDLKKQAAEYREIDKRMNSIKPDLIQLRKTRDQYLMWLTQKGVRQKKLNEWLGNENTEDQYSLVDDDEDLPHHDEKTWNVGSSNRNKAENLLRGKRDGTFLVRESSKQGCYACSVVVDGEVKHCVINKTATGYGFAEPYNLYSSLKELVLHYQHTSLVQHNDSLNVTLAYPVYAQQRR
# EXPERIMENT_NOTES: Cellular assay I1, p-Akt (S473) in Rat-1 cells, Surefire format
# Assay type: cell-based
# CONDITION_SUMMARY: non-asterisked data: version I1 (Surefire format), Rat-1 cells; read-out: Assay I PI3Kβ IC50
Structures can show the parent of a compound that is named as a salt.

Cc1ccc(S(=O)(=O)NCC(C)(C)O)cc1-c1cnc(N)c(-c2cn(C)nn2)n1    > 10 µM

Required: IC50, one value per compound below.
1. Cc1ccc(S(=O)(=O)NCC2(CO)COC2)cc1-c1cnc(N)c(-n2cncn2)n1
2. CC(C)(O)CNS(=O)(=O)c1ccc(Cl)c(-c2cnc(N)c(-n3cncn3)n2)c1
3. Cc1ccc(S(=O)(=O)NCCC(C)(C)O)cc1-c1cnc(N)c(-c2cc(C(F)(F)F)nn2C)n1
4. Cc1cc(-c2nc(-c3cc(S(=O)(=O)NC[C@H]4CCCO4)ccc3C)cnc2N)ccn1
5. COc1cc(-c2nc(-c3cc(S(=O)(=O)NCCC(C)(C)O)ccc3C)cnc2N)ccn1

Output:
1. > 10 µM
2. 1.89 µM
3. 3.06 µM
4. > 10 µM
5. 1.77 µM

Take each entry in turn and give its IC50.
1. Cc1ncc(-c2nc(-c3cc(S(=O)(=O)NC4CCC(F)(F)CC4)ccc3C)cnc2N)s1
2. Cc1cnn(-c2nc(-c3cc(S(=O)(=O)N[C@H]4CC[C@H](O)CC4)ccc3C)cnc2N)c1
3. Cc1ccc(S(=O)(=O)NOCC(C)C)cc1-c1cnc(N)c(-n2cncn2)n1
4. CCc1nnc(-c2nc(-c3cc(S(=O)(=O)N[C@H]4CC[C@H](O)CC4)ccc3C)cnc2N)o1

Output:
["2.67 µM", "> 10 µM", "> 3 µM", "> 10 µM"]

Please supply IC50 for each of the following items, keeping them in order.
1. Cc1ccc(S(=O)(=O)NC2CC2)cc1-c1cnc(N)c(-n2cncn2)n1
2. Cc1ccc(S(=O)(=O)N[C@H]2CC[C@H](O)CC2)cc1-c1cnc(N)c(-c2cccnc2)n1
3. Cc1ncc(S(=O)(=O)NCC(C)(C)O)cc1-c1cnc(N)c(-n2cncn2)n1
4. Cc1ccc(S(=O)(=O)NC[C@H]2CCCN2)cc1-c1cnc(N)c(-c2cn(C)nc2C)n1 [Example 106, hydrochloride]

Output:
["> 3 µM", "> 10 µM", "> 10 µM", "> 10 µM"]
